- measurement_target: Beta-2 adrenergic receptor (Homo sapiens) (UniProt P07550)
- Sequence (P07550 whole entry, looked up): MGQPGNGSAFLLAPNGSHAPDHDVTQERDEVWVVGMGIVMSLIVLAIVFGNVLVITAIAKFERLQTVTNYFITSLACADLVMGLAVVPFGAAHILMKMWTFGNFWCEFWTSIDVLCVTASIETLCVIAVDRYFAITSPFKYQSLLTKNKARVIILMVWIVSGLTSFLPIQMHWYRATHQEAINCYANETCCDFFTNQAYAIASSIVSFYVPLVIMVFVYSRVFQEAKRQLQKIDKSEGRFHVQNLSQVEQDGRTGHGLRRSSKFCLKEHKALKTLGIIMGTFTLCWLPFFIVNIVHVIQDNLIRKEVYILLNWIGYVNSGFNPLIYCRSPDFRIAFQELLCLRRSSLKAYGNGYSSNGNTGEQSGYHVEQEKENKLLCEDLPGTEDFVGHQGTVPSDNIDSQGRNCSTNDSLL
- assay_summary: Adrenergic beta2 receptor (ADRB2) small molecule antagonists, cell-based qHTS assay (AID 1963592); note: % is set by controls: 0 for no effect and ±100 for the full control effect; nearly all actives have a fitted effect of over 50% in size
- experimental_parameters: CHO-ADRB2 cells, isoproterenol-stimulated cAMP HTRF ratio, 0.5 h; series mostly up to 92.4 µM
Inconclusive results are not listed. Calls of active or inactive are those of the source. Calls come from the whole dose curve.
attribute_measured: activity change, negative = inhibition

compound=O=NN(CCCl)C(=O)NCCCl attribute_measured="activity change, negative = inhibition" result=inactive
compound="CCCN(CCC)C(=O)C(CCC(=O)O)NC(=O)c1ccccc1 (stereo unspecified)" attribute_measured="activity change, negative = inhibition" result=inactive
compound=CC[C@H]1OC(=O)[C@H](C)[C@@H](O[C@H]2C[C@@](C)(OC)[C@@H](O)[C@H](C)O2)[C@H](C)[C@@H](O[C@@H]2O[C@H](C)C[C@H](N(C)C)[C@H]2O)[C@](C)(OC)C[C@@H](C)C(=O)[C@H](C)[C@@H](O)[C@]1(C)O attribute_measured="activity change, negative = inhibition" result=inactive
compound=O=C(O)CCCC[P+](c1ccccc1)(c1ccccc1)c1ccccc1 attribute_measured="activity change, negative = inhibition" result=inactive
compound=Cc1cccc(C)c1NC(=O)c1ccccc1C(=O)O attribute_measured="activity change, negative = inhibition" result=inactive
compound=CC(C)(C)c1ccccc1 attribute_measured="activity change, negative = inhibition" result=inactive
compound=CC1(C)CC(OC(=O)CCCCCCCCC(=O)OC2CC(C)(C)NC(C)(C)C2)CC(C)(C)N1 attribute_measured="activity change, negative = inhibition" result="8.71% [at 19 µM] (inactive)"
compound=O=c1c(O)c(O)c1=O attribute_measured="activity change, negative = inhibition" result=inactive
compound=O=C(O)c1cccc(Cl)n1 attribute_measured="activity change, negative = inhibition" result=inactive
compound="Cc1ccc(S(=O)(=O)NC(=O)NN2CC3CCCC3C2)cc1 (stereo unspecified)" attribute_measured="activity change, negative = inhibition" result=inactive

As a next step, examine the compound that follows.
INPUT: Give measured activity change, negative = inhibition for CN(C)CCN(C)CCN(C)C (Beta-2 adrenergic receptor (Homo sapiens) (UniProt P07550)).
OUTPUT: inactive

---

- measurement_target: Beta-2 adrenergic receptor (Homo sapiens)
- assay_summary: Adrenergic beta2 receptor (ADRB2) small molecule antagonists, cell-based qHTS assay (AID 1963592); note: % is set by controls: 0 for no effect and ±100 for the full control effect; nearly all actives have a fitted effect of over 50% in size
- experimental_parameters: CHO-ADRB2 cells, isoproterenol-stimulated cAMP HTRF ratio, 0.5 h; series mostly up to 92.4 µM
Records with an inconclusive call do not appear. Active and inactive are the calls of the source. Calls follow the shape of the full dose curve.
attribute_measured: activity change, negative = inhibition

compound="CCN(CC)CCOc1ccc(C(O)(Cc2ccc(Cl)cc2)c2ccc(C)cc2)cc1 (stereo not drawn)" measurement_target="Beta-2 adrenergic receptor (Homo sapiens)" result=inactive
compound=CC(C)(C)c1cc(CCC(=O)NN)cc(C(C)(C)C)c1O measurement_target="Beta-2 adrenergic receptor (Homo sapiens)" result=inactive
compound=C=C(C)C(=O)OCCCCCCCCCCOC(=O)C(=C)C measurement_target="Beta-2 adrenergic receptor (Homo sapiens)" result=inactive
compound=C=CC(=O)O measurement_target="Beta-2 adrenergic receptor (Homo sapiens)" result=inactive
compound=Cc1cc(=O)oc2cc(O)cc(O)c12 measurement_target="Beta-2 adrenergic receptor (Homo sapiens)" result=inactive

INPUT: Dear colleague, please send me the reported activity change, negative = inhibition for Nc1cc(C(=O)O)c(O)c(S(=O)(=O)O)c1 when you can.
OUTPUT: inactive

INPUT: Dear colleague, please send me the reported activity change, negative = inhibition for Cc1cnc(C)c(C)n1 when you can.
OUTPUT: inactive

INPUT: Dear colleague, please send me the reported activity change, negative = inhibition for O=C(O)c1snc(Cl)c1Cl when you can.
OUTPUT: inactive

---

- assay_summary: Nuclear factor erythroid 2-related factor 2/antioxidant responsive element (Nrf2/ARE) small molecule agonists: luciferase reporter gene qHTS assay in human keratinocytes (AID 1919969); note: nearly all actives have a fitted effect of over 35% in size
- experimental_parameters: KeratinoSens HaCaT ARE-luciferase, luminescence, 24 h; series mostly up to 92.4 µM
Inconclusive results are not listed. Activity calls are given as the source filed them. The call rests on the fitted dose curve.
Permitted responses: yes (1) (active), no (0) (inactive)

Solved entries:
compound=O=C(O)c1ccc(Cl)cc1Cl class_name="no (0)"
compound=C[C@H]1O[C@@H](n2cc(F)c(=O)[nH]c2=O)[C@H](O)[C@@H]1O class_name="no (0)"

INPUT: Tell me the recorded outcome of this test for COC(=O)/C=C\C(=O)O .
OUTPUT: no (0)

---

- assay_summary: p53 small molecule agonists, cell-based qHTS assay: qHTS cell viability counter screen (AID 1963581); note: potency is the fitted concentration of half-maximal effect; nearly all actives have a fitted effect of over 45% in size
- experimental_parameters: p53RE-bla HCT-116 viability, ATP luminescence, 16 h; series mostly up to 66 µM
Inconclusive results are not listed. Active and inactive are the calls of the source. The call rests on the fitted dose curve.
The molecules listed here are annotated with their Potency.

Field: example entries. Status: answers known.
molecule=CC(C)=CCC1=C(O)c2ccccc2C(=O)C1=O attribute_measured=Potency result="3.61 µM (active)"
molecule=Cc1cc(O)c(C(C)(C)C)cc1Sc1cc(C(C)(C)C)c(O)cc1C attribute_measured=Potency result="5.75 µM (active)"
molecule=CCCCCCCC[N+](CCCCCCCC)(CCCCCCCC)CCCCCCCC attribute_measured=Potency result="4.57 µM (active)"
molecule="CC(C)C(O)C(C)(C)CO (stereo not given)" attribute_measured=Potency result="3.75 µM (active)"
molecule=Cc1c(C2(c3cc(Br)c(O)c(Br)c3C)OS(=O)(=O)c3ccccc32)cc(Br)c(O)c1Br attribute_measured=Potency result="22.3 µM (active)"
molecule="CCN(CC)CCOc1ccc(C(O)(Cc2ccc(Cl)cc2)c2ccc(C)cc2)cc1 (stereo not given)" attribute_measured=Potency result="19.9 µM (active)"
molecule=Nc1ccccc1O attribute_measured=Potency result="32 µM (active)"
molecule=CCCC(c1cc(C(C)(C)C)c(O)cc1C)c1cc(C(C)(C)C)c(O)cc1C attribute_measured=Potency result="5.83 µM (active)"

INPUT: Dear colleague, please send me the reported Potency for CCCCCN=C(N)N/N=C/c1c[nH]c2ccc(OC)cc12 when you can.
OUTPUT: 15.8 µM (active)

INPUT: Dear colleague, please send me the reported Potency for O=C(O)c1cccc(-c2noc(-c3ccccc3F)n2)c1 when you can.
OUTPUT: 15.8 µM (active)

---

- measurement_target: Beta-2 adrenergic receptor (Homo sapiens)
- assay_summary: Adrenergic beta2 receptor (ADRB2) small molecule antagonists, cell-based qHTS assay (AID 1963592); note: % is set by controls: 0 for no effect and ±100 for the full control effect; nearly all actives have a fitted effect of over 50% in size
- experimental_parameters: CHO-ADRB2 cells, isoproterenol-stimulated cAMP HTRF ratio, 0.5 h; series mostly up to 92.4 µM
Records with an inconclusive call do not appear. The source made the active and inactive calls. Calls follow the shape of the full dose curve.
attribute_measured: activity change, negative = inhibition

Field: example entries. Status: answers known.
smiles_notation=Cc1cccn2c(=O)c(-c3nnn[nH]3)cnc12 attribute_measured="activity change, negative = inhibition" result="1.4% [at 19 µM] (inactive)"
smiles_notation=CCOc1ccccc1O attribute_measured="activity change, negative = inhibition" result=inactive
smiles_notation=O=C(O)CNC(=O)c1ccc([N+](=O)[O-])cc1 attribute_measured="activity change, negative = inhibition" result=inactive
smiles_notation=Cc1ccc(CCn2c3c(c4cc(Cl)ccc42)CN(C)CC3)cn1 attribute_measured="activity change, negative = inhibition" result=inactive
smiles_notation=COc1ccc2c(c1OC)C(=O)O[C@@H]2[C@H]1c2c(cc3c(c2OC)OCO3)CCN1C attribute_measured="activity change, negative = inhibition" result=inactive

As a next step, examine the compound that follows.
INPUT: Give measured activity change, negative = inhibition for C/C(=N\[Si](C)(C)C)O[Si](C)(C)C (Beta-2 adrenergic receptor (Homo sapiens)).
OUTPUT: inactive

---

- assay_summary: Nuclear factor erythroid 2-related factor 2/antioxidant responsive element (Nrf2/ARE) small molecule agonists: luciferase reporter gene qHTS assay in human keratinocytes (AID 1919969); note: nearly all actives have a fitted effect of over 35% in size
- experimental_parameters: KeratinoSens HaCaT ARE-luciferase, luminescence, 24 h; series mostly up to 92.4 µM
- Description: National Center for Advancing Translational Sciences [NCATS] Division of Preclinical Innovation [DPI] U.S. Environmental Protection Agency [EPA] National Institutes of Environmental Health Sciences [NIEHS] National Toxicology Program [NTP] […] Oxidative stress has been implicated in the pathogenesis of a variety of diseases ranging from cancer to neurodegeneration. […] The activation of the report gene under culture conditions can be detected by ONE-Glo Luciferase Assay System (Promega, Madison, WI). […]
Results filed as inconclusive are left out. Active and inactive are the calls of the source. Calls follow the shape of the full dose curve.
Permitted responses: TRUE = active, FALSE = inactive

molecule=C=C(C)CCO class_name=FALSE
molecule=O[C@@H]1CO[C@H]2[C@@H]1OC[C@@H]2O class_name=FALSE
molecule=OC1(c2ccc(Cl)c(C(F)(F)F)c2)CCN(CCCC(c2ccc(F)cc2)c2ccc(F)cc2)CC1 class_name=FALSE
molecule=O=C(O)CCC(=O)C(=O)O class_name=FALSE
molecule=CCCOc1ccccc1-c1nc2n[nH]nc2c(=O)[nH]1 class_name=FALSE
molecule="CCCC1CCC(=O)O1 (stereo not drawn)" class_name=FALSE
molecule=C/C(=N/NC(=O)c1ccncc1)C(=O)O class_name=FALSE
molecule="CCOc1cc(N)c(Cl)cc1C(=O)NCC1CN(Cc2ccc(F)cc2)CCO1 (stereo not drawn)" class_name=FALSE

INPUT: Tell me the recorded outcome of this test for OC1OCCOC1O (stereo not drawn) .
OUTPUT: FALSE

INPUT: Tell me the recorded outcome of this test for O=C(O)CCNC(=O)c1ccc(N=Nc2ccc(O)c(C(=O)O)c2)cc1 .
OUTPUT: FALSE

INPUT: Tell me the recorded outcome of this test for COc1ccc2[nH]c(S(=O)Cc3ncc(C)c(OC)c3C)nc2n1 (stereo not drawn) .
OUTPUT: TRUE

INPUT: Tell me the recorded outcome of this test for CCOc1nc2cccc(C(=O)O)c2n1Cc1ccc(-c2ccccc2-c2nn[nH]n2)cc1 .
OUTPUT: FALSE

INPUT: Tell me the recorded outcome of this test for CC(=O)O[C@@H]1C(=O)O[C@@H]2[C@H]1OC(=O)[C@@H]2OC(C)=O .
OUTPUT: TRUE
